Entry source: paper PMC12516686

# testDetails: Cytotoxicity against A549 cells (CellTiter-Glo)
# Assay type: cell-based
# conditionsUsed: human, A549 cells; read-out: A549 cytotoxicity GI50 (50% growth inhibition)

{"chemicalSmiles": "Nc1nc2ccc(C(=O)NCCc3cccc(Br)c3)cc2s1", "unitSymbol": "µM", "GI50": 60.4}
{"chemicalSmiles": "Nc1nc2ccc(C(=O)NCCc3cccc(Cl)c3)cc2s1", "unitSymbol": "µM", "GI50": 54.5}
{"chemicalSmiles": "Nc1nc2ccc(C(=O)N(CCc3ccc(Cl)c(Cl)c3)C3CC3)cc2s1", "unitSymbol": "µM", "GI50": 13.8}
{"chemicalSmiles": "Nc1nc2ccc(C(=O)N(Cc3ccc(Cl)c(Cl)c3)C3CC3)cc2s1", "unitSymbol": "µM", "GI50": 24.6}
{"chemicalSmiles": "Nc1nc2ccc(C(=O)NCCc3ccc(Cl)c(Cl)c3)cc2s1", "unitSymbol": "µM", "GI50": 27}
{"chemicalSmiles": "Nc1nc2ccc(CN(Cc3ccc(Cl)c(Cl)c3)C3CC3)cc2s1", "unitSymbol": "µM", "GI50": 12.6}
